system: Staphylococcus aureus; assay: Antibacterial activity against Staphylococcus aureus expressing aminoglycoside-6'-N-acetyltransferase/2''-O-phosphoryltransferase after 24 hrs by geometric microdilution method; format: functional
The label is True for MIC below 20 µg/mL and False for MIC equal to or exceeding 20 µg/mL.

These solved cases illustrate the format of a correct answer.
MOLECULE	CLASS NAME
CCCCCCO[C@@H]1[C@@H](N)[C@@H](O[C@H]2[C@H](O)[C@@H](OCCCCCC)[C@H](N)C[C@@H]2N)O[C@H](CN)[C@H]1OCCCCCC	True
CCCCCCCCCO[C@@H]1[C@@H](N)[C@@H](O[C@H]2[C@H](O)[C@@H](OCCCCCCCCC)[C@H](N)C[C@@H]2N)O[C@H](CN)[C@H]1O	True
NC[C@H]1O[C@H](O[C@H]2[C@H](O)[C@@H](OCc3ccc4ccccc4c3)[C@H](N)C[C@@H]2N)[C@H](N)[C@@H](OCc2ccc3ccccc3c2)[C@@H]1O	True
N[C@H]1[C@@H](O[C@H]2[C@H](O)[C@@H](OCc3ccc4ccccc4c3)[C@H](N)C[C@@H]2N)O[C@H](CO)[C@@H](OCc2ccc3ccccc3c2)[C@@H]1OCc1ccc2ccccc2c1	True
NC[C@H]1O[C@H](O[C@H]2[C@H](O)[C@@H](OCc3ccccc3)[C@H](N)C[C@@H]2N)[C@H](N)[C@@H](OCc2ccccc2)[C@@H]1OCc1ccccc1	False

INPUT: Strictly below 20 µg/mL: is that where MIC of "CCCCO[C@@H]1[C@@H](N)[C@@H](O[C@H]2[C@H](O)[C@@H](OCCCC)[C@H](N)C[C@@H]2N)O[C@H](CN)[C@H]1O" sits?
OUTPUT: False

INPUT: Strictly below 20 µg/mL: is that where MIC of "N[C@H]1[C@@H](O[C@H]2[C@H](O)[C@@H](OCc3cccc4ccccc34)[C@H](N)C[C@@H]2N)O[C@H](CO)[C@@H](O)[C@@H]1OCc1cccc2ccccc12" sits?
OUTPUT: False

* * *

MIC reference
system: Staphylococcus aureus; assay: microbe, parasite or virus in culture; conditions: ATCC 25923, 24 h
Description: Antibacterial activity against Staphylococcus aureus ATCC 25923 after 24 hrs by geometric microdilution method

These solved cases illustrate the format of a correct answer.
MOLECULE	MIC
CCCCO[C@@H]1[C@@H](N)[C@@H](O[C@H]2[C@H](O)[C@@H](OCCCC)[C@H](N)C[C@@H]2N)O[C@H](CN)[C@H]1OCCCC	> 128 µg/mL
N[C@H]1[C@@H](O[C@H]2[C@H](O)[C@@H](OCc3ccc4ccccc4c3)[C@H](N)C[C@@H]2N)O[C@H](CO)[C@@H](O)[C@@H]1OCc1ccc2ccccc2c1	8 µg/mL
NC[C@H]1O[C@H](O[C@H]2[C@H](O)[C@@H](OCc3ccc4ccccc4c3)[C@H](N)C[C@@H]2N)[C@H](N)[C@@H](OCc2ccc3ccccc3c2)[C@@H]1O	8 µg/mL

Now let's try a different one.
INPUT: Entry "N[C@H]1[C@@H](O[C@H]2[C@H](O)[C@@H](OCc3cccc4ccccc34)[C@H](N)C[C@@H]2N)O[C@H](CO)[C@@H](OCc2cccc3ccccc23)[C@@H]1OCc1cccc2ccccc12" has what MIC?
OUTPUT: 2 µg/mL

* * *

tested on: Staphylococcus aureus; assay: microbe, parasite or virus in culture; conditions: ATCC 25923, 24 h
QUANTITY KIND: MIC

These solved cases illustrate the format of a correct answer.
MOLECULE	MIC
NC[C@H]1O[C@H](O[C@H]2[C@H](O)[C@@H](OCCCc3ccc4ccccc4c3)[C@H](N)C[C@@H]2N)[C@H](N)[C@@H](OCCCc2ccc3ccccc3c2)[C@@H]1OCCCc1ccc2ccccc2c1	> 128 µg/mL
N[C@H]1[C@@H](O[C@H]2[C@H](O)[C@@H](OCc3ccc4ccccc4c3)[C@H](N)C[C@@H]2N)O[C@H](CO)[C@@H](OCc2ccc3ccccc3c2)[C@@H]1OCc1ccc2ccccc2c1	2 µg/mL
CCCCCCCCCCCCCCCCCCO[C@@H]1[C@@H](N)[C@@H](O[C@H]2[C@H](O)[C@@H](OCCCCCCCCCCCCCCCCCC)[C@H](N)C[C@@H]2N)O[C@H](CN)[C@H]1O	> 128 µg/mL

INPUT: Entry "CCCCCCCCCCCCCCCCCCO[C@@H]1[C@@H](N)[C@@H](O[C@H]2[C@H](O)[C@@H](O)[C@H](N)C[C@@H]2N)O[C@H](CN)[C@H]1O" has what MIC?
OUTPUT: > 128 µg/mL

INPUT: Entry "NC[C@H]1O[C@H](O[C@H]2[C@H](O)[C@@H](O)[C@H](N)C[C@@H]2N)[C@H](N)[C@@H](O)[C@@H]1O" has what MIC?
OUTPUT: 32 µg/mL

INPUT: Entry "NC[C@H]1O[C@H](O[C@H]2[C@H](O)[C@@H](OCc3ccccc3)[C@H](N)C[C@@H]2N)[C@H](N)[C@@H](OCc2ccccc2)[C@@H]1OCc1ccccc1" has what MIC?
OUTPUT: > 128 µg/mL

* * *

test system: Staphylococcus aureus; experiment: microbe, parasite or virus in culture; conditions: ATCC 25923, 24 h
MIC reference
Kindly answer with a numeric value in µg/mL, unit omitted.

INPUT: Entry "NC[C@H]1O[C@H](O[C@H]2[C@H](O)[C@@H](OCc3cccc4ccccc34)[C@H](N)C[C@@H]2N)[C@H](N)[C@@H](OCc2cccc3ccccc23)[C@@H]1OCc1cccc2ccccc12" has what MIC?
OUTPUT: 1

INPUT: Entry "CCCCCCO[C@@H]1[C@@H](N)[C@@H](O[C@H]2[C@H](O)[C@@H](OCCCCCC)[C@H](N)C[C@@H]2N)O[C@H](CN)[C@H]1O" has what MIC?
OUTPUT: 128

INPUT: Entry "NC[C@H]1O[C@H](O[C@H]2[C@H](O)[C@@H](OCCCc3ccc4ccccc4c3)[C@H](N)C[C@@H]2N)[C@H](N)[C@@H](OCCCc2ccc3ccccc3c2)[C@@H]1O" has what MIC?
OUTPUT: 2

INPUT: Entry "N[C@H]1[C@@H](O[C@H]2[C@H](O)[C@@H](OCc3cccc4ccccc34)[C@H](N)C[C@@H]2N)O[C@H](CO)[C@@H](O)[C@@H]1OCc1cccc2ccccc12" has what MIC?
OUTPUT: 32

* * *

MIC reference
test system: Pseudomonas aeruginosa; assay: Antibacterial activity against Pseudomonas aeruginosa PA22 (PT629) expressing MexXY after 24 hrs by geometric microdilution method; assay type: functional
Kindly answer with a numeric value in µg/mL, unit omitted.

These solved cases illustrate the format of a correct answer.
MOLECULE	UNITS OF MEASURE	RESULT NUMBER
NC[C@H]1O[C@H](O[C@H]2[C@H](O)[C@@H](OCCCc3ccc4ccccc4c3)[C@H](N)C[C@@H]2N)[C@H](N)[C@@H](OCCCc2ccc3ccccc3c2)[C@@H]1OCCCc1ccc2ccccc2c1	µg/mL	128
NCC[C@H](O)C(=O)N[C@@H]1C[C@H](N)[C@@H](O[C@H]2O[C@H](CN)[C@@H](O)[C@H](O)[C@H]2O)[C@H](O)[C@H]1O[C@H]1O[C@H](CO)[C@@H](O)[C@H](N)[C@H]1O	µg/mL	8

Now let's try a different one.
INPUT: Entry "NC[C@@H]1O[C@H](O[C@H]2[C@@H](O)[C@H](O[C@@H]3[C@@H](O)[C@H](N)C[C@H](N)[C@H]3O[C@H]3O[C@H](CN)[C@@H](O)[C@H](O)[C@H]3N)O[C@@H]2CO)[C@H](N)[C@@H](O)[C@@H]1O" , system Pseudomonas aeruginosa: what MIC was measured?
OUTPUT: 32

* * *

experiment: Ratio of cytotoxicity against murine J774 cells to antibacterial activity against Pseudomonas aeruginosa PA22 (PT629) expressing MexXY; type: toxicity, cell-based; conditions: mouse
QUANTITY KIND: selectivity ratio
Reply with the value as a number alone.

INPUT: Entry "CCCCCCCCCO[C@@H]1[C@@H](N)[C@@H](O[C@H]2[C@H](O)[C@@H](OCCCCCCCCC)[C@H](N)C[C@@H]2N)O[C@H](CN)[C@H]1O" has what selectivity ratio?
OUTPUT: 2.5

* * *

assay: Ratio of cytotoxicity against murine J774 cells to antibacterial activity against healthcare-acquired methicillin-resistant Staphylococcus aureus ATCC 33592; assay type: toxicity, cell-based; details: mouse
QUANTITY KIND: selectivity ratio
Reply with the value as a number alone.

INPUT: Entry "NC[C@H]1O[C@H](O[C@H]2[C@H](O)[C@@H](OCCCc3ccc4ccccc4c3)[C@H](N)C[C@@H]2N)[C@H](N)[C@@H](OCCCc2ccc3ccccc3c2)[C@@H]1O" has what selectivity ratio?
OUTPUT: 5.5

* * *

MIC reference
system: Staphylococcus aureus; assay: Antibacterial activity against vancomycin-resistant Staphylococcus aureus VRS2 after 24 hrs by geometric microdilution method; assay type: functional; conditions: VRS2, 24 h
Kindly answer with a numeric value in µg/mL, unit omitted.

These solved cases illustrate the format of a correct answer.
MOLECULE	UNITS OF MEASURE	MIC
NC[C@H]1O[C@H](O[C@H]2[C@H](O)[C@@H](OCc3cccc4ccccc34)[C@H](N)C[C@@H]2N)[C@H](N)[C@@H](OCc2cccc3ccccc23)[C@@H]1OCc1cccc2ccccc12	µg/mL	16
NC[C@H]1O[C@H](O[C@H]2[C@H](O)[C@@H](OCc3cccc4ccccc34)[C@H](N)C[C@@H]2N)[C@H](N)[C@@H](OCc2cccc3ccccc23)[C@@H]1O	µg/mL	8
NC[C@H]1O[C@H](O[C@H]2[C@H](O)[C@@H](OCCCCc3ccc4ccccc4c3)[C@H](N)C[C@@H]2N)[C@H](N)[C@@H](OCCCCc2ccc3ccccc3c2)[C@@H]1O	µg/mL	2

INPUT: Entry "CCCCCCO[C@@H]1[C@@H](N)[C@@H](O[C@H]2[C@H](O)[C@@H](OCCCCCC)[C@H](N)C[C@@H]2N)O[C@H](CN)[C@H]1O" has what MIC?
OUTPUT: 128
